target: M-phase inducer phosphatase 2 (Homo sapiens) + Cyclin-dependent kinase 2 (Homo sapiens) + Cyclin-A2 (Homo sapiens) (UniProt P30305+P24941+P20248); assay: primary biochemical HTRF screen for inhibition of M-phase inducer phosphatase 2 binding to cyclin-dependent kinase 2/cyclin A (AID 1259370); details: HTRF CDC25B-CDK2/CyclinA binding, anti-His/anti-Flag
About 680 (0.72%) of roughly 94,000 compounds were called active. Cut-off read from the data, not from the text of the source: active = z-score above about 3.2; inactive = the rest. For the sample, actives were picked, then their nearest neighbours and some compounds at random.
Hello, when you answer, please use one of the following outcomes: 1.0 (active), 0.0 (inactive)

Check out these entries, answers already filled in.
[
  {
    "compound": "CCCCn1c2ccccc2c2nc3ccccc3nc21",
    "groupLabel": 1.0
  },
  {
    "compound": "Cc1cc(C)cc(Nc2nccc(=O)[nH]2)c1",
    "groupLabel": 0.0
  },
  {
    "compound": "N=C1C(c2nc3ccccc3[nH]2)=C(O)CN1c1ccc(Oc2ccccc2)cc1",
    "groupLabel": 0.0
  },
  {
    "compound": "O=C(NCCN1CCOCC1)c1nnc(CS(=O)(=O)c2ccccc2)o1",
    "groupLabel": 0.0
  },
  {
    "compound": "O=C(O)c1cccc(N2C(=O)c3ccc4c5c(ccc(c35)C2=O)CC4)c1",
    "groupLabel": 1.0
  }
]

Q: Please indicate how the test categorized `O=C(/C=C/c1ccc(Cl)cc1)Nc1ccc(-c2nc3ccccc3o2)c(O)c1` .
A: 0.0

Q: Please let me know the test result on file for Cc1nc2sc(C(c3cccc(Cl)c3)N3CCN(c4ccccc4)CC3)c(O)n2n1 (stereo not given) .
A: 0.0

Q: Record request — test call for `Cc1nc(N2CCCCC2)cc(N2CCN(S(=O)(=O)c3ccc(F)cc3)CC2)n1`
A: 0.0

Q: Could you kindly confirm the outcome this assay logged for `C=CCOc1ccc(C2C3=C(CCCC3=O)NC3=C2C(=O)CCC3)cc1` ?
A: 1.0

Q: Which outcome did this test record for the compound CN1CSC2=C(C#N)C(c3ccc(Br)cc3)CC(=O)N2C1 (stereo not given) ?
A: 0.0

Q: What call does the record list for `O=C(C1CCN(S(=O)(=O)c2cccs2)CC1)N1CCN(c2ccccc2Cl)CC1` ?
A: 0.0

Q: Just curious, what result did `CCCc1nc(C)cc(N2CCOCC2)n1` get here?
A: 0.0

Q: Could you check what this test reported for COc1cccc(OCC(O)Cn2c[n+](C)c3cc(C)c(C)cc32)c1 (stereo not given) ?
A: 0.0

Q: Tell me the assay call for `C=CCN1C(=O)/C(=C/c2ccc(OC(=O)C34CC5CC(CC(C5)C3)C4)c(OC)c2)SC1=S` please.
A: 0.0

Q: Dear colleague, could you share the recorded outcome for `CC(C)(C)c1cn2c3ccccc3n(CCN3CCOCC3)c2n1` when you have a moment?
A: 0.0
